experimental-protocol: label from the status in PepcDB records;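 also: failed if final PepcDB status was selected cloned or expressed and not failed if soluble or beyond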
endpoint-label: protein production

These recorded examples may help you get a feel for the data.
| sequence-content | protein production |
| --- | --- |
| MKLIKTIDAVGQVLCHDITQIIPGEFKGRKFKKGHIVKEEDIPVLLSLGKDNLYVWEKSEGMVHENEGALFLKELTAGENLDFSEIKEGKIDFIAACDGLLKIDVDALFDLNCVGEIMMATLHNNFIVNKGLKVAGTRVIPLVIDEKKLEDAKKVVGNRKIVNVVPFKPKKVGIVTTGNEVFYSRIVDKFGPVIEEKVKGFGCEVIGQTICPDDKEIIKSAIKEFISQGAELICCTGGMSVDPDDVTPTAIKETGADLVTYGSPILPGAMFLLAYYGEVPIMGIPGCAMYHKTTVFDIVLSRVLIDEKLDKYDIARYGHGGLCMNCDVCTYPACNFAKILEHHHHHH | failed |
| MKCNERDCNNDNGEEDEKDTNTTIAVKLPATTALIVGYDPIDDQHKALSLKRKRTEKLSFINALKGFVQWGSEAVFIEYKGKLASIDLETVKSLGALMDSKEPPAPVNLLF | failed |
| MRGLSSLLLMIVLALLLYPLPHGVILIGIMTLSLLSHTLGIISLGILALYLIVFRITNIVGVAIMALGLLVVEIREMEKIRAPMEHFLYLIVAVGLSLLTYFGVYAISLAGVSLDVTLLAVLFLLLLYAFIRISVLSP | failed |
| MYRNDPILPTFALILAAGLFYAAYLDGRHIARLLGHVPEELSVGQIGLMAFGAVLLLYGLMGLVSYWLEGIELRPGRHFPTPSTAPVAAGVILVLLLTALSGFFVRLLVYSAQTGHNPTWLQGLIFGSISLVVAALFGIYRRFFGREEVITEEEKSEFPW | failed |
| MKKISVKFNQKQIFFGIIGLLLLGIIGIFAYKLNEYFSEPVIKAKSINLDASPSPKSKIIERLKKDQKIKVLKKNNNTDWWQVEIGSQKGWVASWLIQKKNYNAKNAGRLAEATIVLDPGHGGVDSGTQASNGAMEKTYTLRTALKVYKLLKAKNVHVIMTRHTNKTVALASRPALSNRVKANIYISFHFNSAGEQNAAEGYEVFKYNHNANSFASTIDKQFNNLPLYNRGVSFGNFEVLRDNKRPAILVEMGFMDSDYDFSYIQKSSYQQKVANDVTKSLTSYFN | failed |

According to the records, this sequence MDLKGGESMVDWKLMQEIIEAPGVSGYEHLGIRDIVVDVLKEVADEVKVDKLGNVIAHFKGSSPRIMVAAHMDKIGVMVNHIDKDGYLHIVPIGGVLPETLVAQRIRFFTEKGERYGVVGVLPPHLRRGQEDKGSKIDWDQIVVDVGASSKEEAEEMGFRVGTVGEFAPNFTRLNEHRFATPYLDDRICLYAMIEAARQLGDHEADIYIVGSVQEEVGLRGARVASYAINPEVGIAMDVTFAKQPHDKGKIVPELGKGPVMDVGPNINPKLRAFADEVAKKYEIPLQVEPSPRPTGTDANVMQINREGVATAVLSIPIRYMHSQVELADARDVDNTIKLAKALLEELKPMDFTP displays protein production of not failed

According to the records, this sequence MSGSEYSEVDVNEGDSIWALADQYAAKSDMAKADFVSWVEKENNLTDGHVKAGDYVVIPVHETKLQRSDSTIQLANQLEHHHHHH displays protein production of not failed

According to the records, this sequence MKIEAASEQHLSVYRRYFRACRDEDFEYYRGLPDDADGWLLKVVQHADGEALPEGWVPCQTWFLLSDDGEIAGAARLREGETAVIQDVIGHIGFEVLPQWRGHGYGRVLLQYVQAMAPAPACGNWVLVCDADSPASVRTIEACGGQRLEDMPQPDGRV displays protein production of failed

According to the records, this sequence MQETDSGAGPRTLRRGLMVLAALRDQGPRGLSVTDIARQTGIQRPTIYRLLAALLDAGLVVPLQGTKKYRTQLAADADLAAPNPRVRQMLPVLRRLADRTGDAVFLVVRDGDDSVSLHREIGSYPVQILATYAGKRQPLGVGSGSMALLAALPDEVAHAIVQRNSGRLDEYGGMTPQEMHRLIENTRARGYSVVGNHAVRGALGVGCALLDAQGAPVLAVSVTAIIDRMPAQRQREIAGWIGAELARLAPKA displays protein production of failed

According to the records, this sequence FTNHKGNPMQTERFNKILREAAKDVGIDKEVSSHILRHSHISLLSQQGVSLKAIMDRVGHSDHRTTLSIYSHVTEQMDKDMMNKLEQVKLG displays protein production of failed

----------
experimental-protocol: label from the status in PepcDB records
endpoint-label: protein production

| sequence-content | observed-measurement |
| --- | --- |
| MAVISPATRFAPPLNRPFHRRSILASFHSSSRNFLFLGKPTPSSTIVSVRCQKPVSDGVSSMESMNHVASSVSSSIDFLTLCHRLKGINGPESIADHMYRMALMALIAGDLTGVDRERCIKMAIVHDIAEAIVGDITPSDGVPKEEKSRRETAALKEMCEVLGGGLRAEEITELWLEYENNASLEANIVKDFDKVEMILQALEYEAEHGKVLDEFFISTAGKFQTEIGKSWAAEINARRKSQLTNRQR | failed |
| MDIEVDIIEFKVPLENNKTIFIWDIQPTFTEAYIYESLWSVYSAFGDLYLLKVCPNATVAEPGFYALVKFYSSAQASKAQRATDKQCLFQSSPLKVRLSTKQNLSFYSSKPLCLSKCHNLANHYLGFGGWTTRIVTLKDLSNCVDAGCQEETGDQGVLLKYGCIMELSFPHHGMSCQGVGVAEEVLDSDQDPEEKLRKRGALMKRAKDKAMEVAFEKVLLLILGNGKVAIEIKIDPDEIVPEENSERVIKVNDISWTHIESADSNAEEDFLWDLTEDLPY | failed |
| MISRQQKMTFKEIKDGEMEERDILLTGFYNVRLNSVQEARLTYNLPNDQTVKFGFDGNGYSYGSDFWYIYNRTAQLGKEISSHLDENASKWIEEAGQKGYTTGNQAKVGAIACLPSYLSDAESSSHLAFVEYLNSDGSFIVSEMPSPNILNWRLIQPQSKMTFIYL | failed |

----------
experimental-protocol: label from the status in PepcDB records

| sequence-content | protein production |
| --- | --- |
| MCRSGSRCCPPIKLRVACVVAASILTARAGTYAIAACYVAALRVMDQRIAMSLQVLGAGLGRTGTLSLKFALEHLGFGPCYHATEVAANMRTALPLWNAAERGAADWSAIFAGYRSSTDHPGCYYWRQLIEVYPQAKVVLTVRDPDSWFESVTQTILMPGRKSTFVGPEGETFSTFLKQQMGGRSQDRAFMVDYFNRWNQAVIDTVPADRLLVFSARQGWAPLCSFLGVPVPHKPYPHLHARPRLRWFTRGLRLPDDVAARERHVREYLEYLREDLFG | failed |
| MSAPCCGCGKTLDVAAMHARQRRVLWWVLAINAGSFALMLAGALHSGAASLLSGSLDNLGDALTYALSLAVVGASMAAKARVALLKAGLILLAALAVAAEIGWKLAHPQVPLFQSMGLVAAANFLANLVCLRLLWPYRDGDINLASAWACSRNDVYEGVAVLAASGAVWALGSGWPDLLIAVGLLVVFLRSAWQVARRAWAELGTAG | failed |

----------
experimental-protocol: label from the status in PepcDB records
endpoint-label: protein production

| sequence-content | protein production |
| --- | --- |
| EQQADGTWLMDGWISIRKASNLLEHDLVDEAERYSTLGGYLLWQFGYIPAAGEQITVDGLIFEIVSVNKHNIGKVRVHRTQ | not failed |
| MDYATNCASLPKWHKVPLLSVCIPAYNRPQGLVAAVRSVVAALPREYHDQVEIVITDDSATRTAVDDLLAPWSGHWHYQHNAQRLGMVANWNTSLAKACGEFILLLHDDDYLLPQGITTILATLSQYGSQFDVFLFGVHLVDSHQRCLRRQIPRRQEWLSPAQALRQLLRHSSLVRFPALIWRRSLLDAVGYFDPTYGEATDLYQWLRFFAQKGVYTVPCATAAYRIHDQALTMGMFQAQTLATLGRIFAAAADLSLLSPAELRHCQCDFFHQFILAGTWRFLRRRQWQRAQAVYQLFDLPEVIALGRSRRWQGLRWLLGSWLWLLQQLSS | failed |
| MKMIQFWFDFASTYSYPAAMQIRQLKDEYRFSLHPFLLGGIFQKQGLNDSPFNAYPVKGQYMWRDLERICQKLDLKFHRPVLFPQNGLLAARIACQYASAPWIFDFICSVYQANFVQNLDIGQPETISQILQNMQLDCNDIIMTSTTDTAKQTLKQNGMIAESLHIFGAPSFVVENELFWGQDRLQDAIDWSQR | failed |
| SEDPVFTFGLIADVQYADIEDGENYLRTRRRYYRGSADLLRDAVLQWRRERVQCVVQLGDIIDGHNRRRDASDRALDTVMAELDACSVDVHHVWGNHEFYNFSRPSLLSSRLNSAQRTGTDTGSDLIGDDIYAYEFSPAPNFRFVLLDAYDLSVIGREEESEKHTHSWRILTQHNHNLQDLNLPPVSVGLEQRFVKFNGGFSEQQLQWLDAVLTLSDHKQERVLIFSHLPVHPCAADPICLAWNHEAVLSVLRSHQSVLCFIAGHDHDGGRCTDSSGAQHITLEGVIETPPHSHAFATAYLYEDRMVMKGRGRVEDLTITYS | not failed |
| MSSGNVFLLSIASSAGMNIRLVHRLIAASCAVVLCSTVGIPAGRAGDPFRSSNPQPISASTAAAFTAAFQQGNYPAAEQALQQALRQDSSDPLVFALAGSLAFAQQNRQAFADYARQTKSKAQAIAPQQPLRSQLYIAVGELMMAASTLLPQLTGDGGVPLAAVPQALQSLQTVYGSLRAAAQINPNDPELNLVQGFVDLIVATNLPLANPSGAIAKLEKASPRYLADRGIALGLRNLKRYPEAIQYVDRAIAAAPENPELRYLKAQILVEQSKATGDANLRRAAAAEFQKALAKSSQLPQPLVWQLFFEACNNQKTFDNRGQDCVSLRDQVTQAPGPWGPATLPPL | failed |

# input for lookup
According to the records, this sequence MTSAAQLTALLHLASPALPVGAFSYSQGLEAAVEARHVHDEASAARWIAEGLAVLAACEAPLWLLQYADWQAGRLDAVAERDGWFLATRETRELRLETAQMGWSLARLIAQMGWGAPAMRDALAARAAITFPTAFAAAAVALGIEARDGLTAYSFAWVENQVAAAVKAIPLGQAAGQRILFGLHAAVGQAAEDAARRAACHPPELSTFSPGLGVLSARHETQYSRLFRSLEHHHHHH displays protein production of failed

Every entry's value here was drawn from a protein production outcome set (Wang et al. 2014).
